Reported values of apparent KD of MS2 coat protein for individual entries
Tested on: MS2 coat protein
Measurement description: apparent KD of MS2 coat protein; designed switch direction (-1 OFF switch, 1 ON switch): -1; higher = weaker reporter binding
Condition parameters: input ligand: FMN 200 uM
Value type: apparent KD of MS2 coat protein (nM)

Sequence code | Target of assay | Value type | Numeric readout
CAACCACGUGCAGGAUAUGCGAAGUGAUUCGGUGGUACCACAGCGUAAACAUGAGGAUCACCCAUGUAGAAGGGCAUGAGGGCU [Eternabot solution 16] (Eterna round: R96, puzzle: Exclusion NG 2) | MS2 coat protein | apparent KD of MS2 coat protein | 352
GGCCGUUUUCGGCCCGGGCGGGCCACAUGAGGAUCACCCAUGUAGGAUAUCGCCGGGUUUCCCGGCGAGAAGGGCAGGGCCCGC [first try] (Eterna round: R96, puzzle: Exclusion NG 3) | MS2 coat protein | apparent KD of MS2 coat protein | 13.4
GUACGAGCCAAACACGUGGACAUGAGGAUCACCCAUGUGUCACCGGAUCCAUAGAGCUCGUCUUACCGACAAAAGCU [Eternabot (Original) Solution 17] (Eterna round: R97, puzzle: Sensor, turn-off variant 1) | MS2 coat protein | apparent KD of MS2 coat protein | 28.9
AUAUACGGGCAGGAUAUGCGAGCCAGAAAGCACGCAGAAGGGCUAACAUGAGGAUCACCCAUGUGAGCAACUCG [Eternabot (Original) Solution 9] (Eterna round: R97, puzzle: Exclusion 6) | MS2 coat protein | apparent KD of MS2 coat protein | 18.1
CCCGUGUGAGGAUAUCCCUCCACAGUACGAAUCGACCCGUGGGAGAAGGCACAUGAGGAUCACCCAUGUGAACG [Eternabot (Original) Solution 30] (Eterna round: R97, puzzle: Exclusion 4) | MS2 coat protein | apparent KD of MS2 coat protein | 42.5
UGUUGUUCAGGAUAUGGUGUGUUGUACAUGAGGAUCACCCAUGUGGGUCCUGGUUUGGCGUCAGAAGGGAAUGUUG [salish99_ex5_r4_118] (Eterna round: R97, puzzle: Exclusion 5) | MS2 coat protein | apparent KD of MS2 coat protein | 482
GGCUUCUGAGGAUAUUAACACCGUUACAUGAGGAUCACCCAUGUUCCUCACGCUACGGCUUAAGAAGGCAGAUGAA [Eternabot (Original) Solution 32] (Eterna round: R97, puzzle: Exclusion 5) | MS2 coat protein | apparent KD of MS2 coat protein | 29.6
GUUUUAUAUGAAGGAUAUACUUAACAUGAGGAUCACCCAUGUGGUGUUGUGAGUGAGUGAGUUUAGUAGAAGGUCAAUUCUUUU [JMF's solution 99] (Eterna round: R96, puzzle: Exclusion NG 2) | MS2 coat protein | apparent KD of MS2 coat protein | 622
GGUCUACAUGAGGAUCACCCAUGUAAGGAUAUCGUCACUGGAGCCUCGGCUCCAGUGACGAGAAGGUACGUAAU [E1/12-A2] (Eterna round: R97, puzzle: Exclusion 1) | MS2 coat protein | apparent KD of MS2 coat protein | 31.5
ACAUGAGGAUCACCCAUGUCUGGCUGGUCCGUCUCGGCUGUCGAGGAUAUGGCUCGGUGUCCGCGCUAGAAGGCGGGAGCUGGA [Aenatbe mod 78] (Eterna round: R96, puzzle: Exclusion NG 3) | MS2 coat protein | apparent KD of MS2 coat protein | 193
CAAUGUGCUGAGGAUAUCUGCAGGUUGGGCCUGGGAGAAGGCGGCACAUGAGGAUCACCCAUGUGACCGAAAUA [EX6 A.17] (Eterna round: R97, puzzle: Exclusion 6) | MS2 coat protein | apparent KD of MS2 coat protein | 78.5
CUUGUUUAUGUAGGAUAUGCCUGGCGUGCCUUUGCAGAAGGACAUGAGGAUCACCCAUGUAACAUGAGGAUCACCCAUGUCGCA [salish99_ExNG1_r04_103] (Eterna round: R96, puzzle: Exclusion NG 1) | MS2 coat protein | apparent KD of MS2 coat protein | 1190
ACUUAUAGAGGAUAUACAGUUAAUUACAUGAGGAUCACCCAUGUUCUUCAAUGUAUAUAAGUAGAAGGCUAAGAAA [Mat - Exclusion 5 - Eli Mod - D5] (Eterna round: R97, puzzle: Exclusion 5) | MS2 coat protein | apparent KD of MS2 coat protein | 58
AAACCCUGAGGAUAUGCAUAACAACAAAGCCUCACGUGCCAACAUGAGGAUCACCCAUGUAGAAGGCGGGCCAA [Mod R3 Insanara 18 - Jieux - Exclusion 2] (Eterna round: R97, puzzle: Exclusion 2) | MS2 coat protein | apparent KD of MS2 coat protein | 24.3

Values from the supplement of paper PMC9170038
